- Assay Target: Adenosine receptor A1 (Homo sapiens, UniProt P30542)
- Sequence (P30542 whole entry): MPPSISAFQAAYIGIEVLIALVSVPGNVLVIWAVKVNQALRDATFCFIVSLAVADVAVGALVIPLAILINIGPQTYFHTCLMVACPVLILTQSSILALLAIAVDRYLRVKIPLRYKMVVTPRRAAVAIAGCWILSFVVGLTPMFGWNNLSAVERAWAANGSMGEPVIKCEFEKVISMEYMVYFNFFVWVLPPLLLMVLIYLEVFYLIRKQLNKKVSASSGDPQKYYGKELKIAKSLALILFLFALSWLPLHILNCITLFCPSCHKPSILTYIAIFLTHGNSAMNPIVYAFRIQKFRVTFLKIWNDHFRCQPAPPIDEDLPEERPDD
Here we gather Ki data for Adenosine receptor A1 (Homo sapiens, UniProt P30542) reported by several publications.
Mark each entry Met if its Ki sits below 90 nM, and Not met for all others.

Lookup: Does the reported Ki of CCNC(=O)C1OC(n2cnc3c(N)nc(C#Cc4ccc(C(N)=O)cc4)nc32)C(O)C1O (stereo not given) stay below 90 nM?
Found: Not met

Lookup: Does the reported Ki of CCNC(=O)C1OC(n2cnc3c(N)nc(C#CC4=CCCCC4)nc32)C(O)C1O (stereo not given) stay below 90 nM?
Found: Met

Lookup: Does the reported Ki of NCCNC(=O)[C@H]1O[C@@H](n2cnc3c(N)ncnc32)[C@H](O)[C@@H]1O stay below 90 nM?
Found: Not met

Lookup: Does the reported Ki of CCCn1c(=O)c2[nH]c(-c3ccc(C=CC(=O)O)cc3)nc2n(CCC)c1=O stay below 90 nM?
Found: Not met

Lookup: Does the reported Ki of CCN(CC)CCNC(=O)COc1cccc(-c2nc3c([nH]2)c(=O)n(C)c(=O)n3C)c1 stay below 90 nM?
Found: Not met

Lookup: Does the reported Ki of Cc1cc(-c2sc(NC(=O)N3CCC4(CC3)CNC(=O)N4C)nc2-c2cccc(C#N)c2)cc(C)n1 stay below 90 nM?
Found: Not met

Lookup: Does the reported Ki of Cc1cc(-c2sc(NC(=O)N3CC4(CCOCC4)C3)nc2-c2cccc(C#N)c2)cc(C)n1 stay below 90 nM?
Found: Met

Lookup: Does the reported Ki of COc1ccc(-c2nc3c([nH]2)c(=O)n(C)c(=O)n3C)cc1OCC(=O)N1CCCCCC1 stay below 90 nM?
Found: Not met

Lookup: Does the reported Ki of Cn1c(=O)c2[nH]c(-c3cccc(OCC(=O)N4CCCCC4)c3)nc2n(C)c1=O stay below 90 nM?
Found: Not met

Lookup: Does the reported Ki of O=c1c2[nH]nnc2nc2n1CCCS2 stay below 90 nM?
Found: Not met

Lookup: Does the reported Ki of Cc1ocnc1Cn1nc2c(-c3cc(C)c4ncoc4c3)c(-c3ccccc3)nc(N)n2c1=O stay below 90 nM?
Found: Met

Lookup: Does the reported Ki of CCNC(=O)C1OC(n2cnc3c(N)nc(C#CCOc4ccccc4)nc32)C(O)C1O (stereo not given) stay below 90 nM?
Found: Met

Lookup: Does the reported Ki of CCNC(=O)C1OC(n2cnc3c(N)nc(C#CC(C)O)nc32)C(O)C1O (stereo not given) stay below 90 nM?
Found: Met

Lookup: Does the reported Ki of Cc1cc(-c2sc(NC(=O)N3CC[C@@H]3CO)nc2-c2cccc(C#N)c2)cc(C)n1 stay below 90 nM?
Found: Met
